- Measured Target: human EP2 (PTGER2) (Homo sapiens, UniProt P43116)
- Construct: Cayman Chemical (Human EP2 Reporter Assay Kit)
- Sequence (P43116 whole entry): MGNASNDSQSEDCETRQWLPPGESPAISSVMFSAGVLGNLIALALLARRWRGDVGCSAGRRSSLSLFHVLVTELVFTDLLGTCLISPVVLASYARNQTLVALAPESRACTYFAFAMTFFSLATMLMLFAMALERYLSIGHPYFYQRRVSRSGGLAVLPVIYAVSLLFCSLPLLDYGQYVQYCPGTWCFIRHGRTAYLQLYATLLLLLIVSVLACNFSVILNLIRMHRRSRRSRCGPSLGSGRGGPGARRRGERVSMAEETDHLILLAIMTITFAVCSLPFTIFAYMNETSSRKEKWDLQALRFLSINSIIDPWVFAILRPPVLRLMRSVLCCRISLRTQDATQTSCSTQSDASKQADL
- Assay Summary: EP2 antagonist assay (HEK-293 CNG membrane potential cAMP assay / 293T SEAP reporter assay, PGE2-stimulated)
- Measurement Setup: EP2 antagonist activity; concentration for 50% inhibition of signal compared to DMSO
pIC50: −log10 of the molar value.
Answer each item with its documented pIC50.

Q: pIC50 for O=C(O)c1ccc(CNC(=O)c2ccc(Nc3cccc(F)c3)c3ccn(Cc4ccc(C(F)(F)F)cc4)c23)cc1 ?
Ans: > 7.00

Q: Field request: pIC50 | item: O=C(O)c1ccc(CNC(=O)c2ccc(-c3ccc(F)c(F)c3)c3ccn(Cc4ccc(C(F)(F)F)cc4)c23)cc1
Ans: ≤ 6.00

Q: Which pIC50 value belongs to O=C(O)c1ccc(CNC(=O)c2cc(-c3ccc(F)c(F)c3)cc3ccn(Cc4ccc(-c5ccccc5)cc4)c23)cc1 ?
Ans: > 7.00

Q: Given the entry O=C(O)c1ccc(CNC(=O)c2ccc(-c3cccc(C(F)(F)F)c3)c3ccn(Cc4ccc(C(F)(F)F)cc4)c23)cc1 , report its measured pIC50.
Ans: ≤ 6.00

Q: Recorded pIC50 for O=C(O)c1ccc(C2(NC(=O)c3ccc(-c4ccc(F)cc4)c4ccn(Cc5ccc(C(F)(F)F)cc5)c34)CC2)cc1 , please?
Ans: ≤ 6.00

Q: Form field: reported pIC50 of N#Cc1cccc(-c2cc(C(=O)NC3(c4ccc(C(=O)O)cc4)CC3)c3c(ccn3Cc3ccc(C(F)(F)F)cc3)c2)c1
Ans: > 7.00

Q: I would be grateful if you could share the reported pIC50 for O=C(O)c1ccc(CNC(=O)c2cc(-c3cccnc3)cc3ccn(Cc4ccc(C(F)(F)F)cc4)c23)cc1 .
Ans: > 7.00

Q: pIC50 lookup needed for O=C(O)c1ccc(CNC(=O)c2cc(-c3ccccc3)cc3ccn(Cc4ccc5ccccc5c4)c23)cc1 , thanks.
Ans: > 7.00

Q: Query (compound): O=C(O)c1ccc(CNC(=O)c2cc(-c3ccccc3)cc3ccn(Cc4cccc(Cl)c4)c23)cc1 ; field requested: pIC50
Ans: > 7.00

Q: If you can, please state the reported pIC50 value of C[C@H](NC(=O)c1cc(-c2cc(F)cc(F)c2)cc2ccn(Cc3ccc4ccccc4c3)c12)c1ccc(C(=O)O)cc1 .
Ans: > 7.00

Q: Query (compound): C[C@@H](NC(=O)c1ccc(-c2cccc(C(F)(F)F)c2)c2ccn(Cc3ccc(C(F)(F)F)cc3)c12)c1ccc(C(=O)O)cc1 ; field requested: pIC50
Ans: ≤ 6.00

Q: Look up pIC50 for this compound: O=C(O)c1ccc(CNC(=O)c2ccc(-c3cc(F)cc(C(F)(F)F)c3)c3ccn(Cc4ccc(C(F)(F)F)cc4)c23)cc1
Ans: ≤ 6.00

Q: Which pIC50 is listed for C[C@@H](NC(=O)c1cc(-c2cccc(C#N)c2)cc2ccn(Cc3ccc(C(F)(F)F)cc3)c12)c1ccc(C(=O)O)cc1 ?
Ans: ≤ 6.00

Q: What does the record list as pIC50 for C[C@H](NC(=O)c1cc(-c2ccc(F)c(F)c2)cc2ccn(Cc3ccc(-c4ccc(F)cc4)cc3)c12)c1ccc(C(=O)O)cc1 ?
Ans: > 7.00

Q: Look up pIC50: O=C(O)c1ccc(C2(NC(=O)c3cc(Oc4ccccc4)cc4ccn(Cc5ccc(C(F)(F)F)cc5)c34)CC2)cc1
Ans: 6.00 to 7.00

Q: Which pIC50 value is on record for C[C@H](NC(=O)c1cc(-c2ccccc2)cc2cnn(Cc3ccc4ccccc4c3)c12)c1ccc(C(=O)O)cc1 ?
Ans: > 7.00

Q: What does the data say about its pIC50? Entry: O=C(NC[C@H]1CC[C@H](C(=O)O)CC1)c1cc(-c2ccccc2)cc2cnn(Cc3cccc(C(F)(F)F)c3)c12
Ans: > 7.00

Q: Item under review: C[C@H](NC(=O)c1cc(-c2cc(F)cc(F)c2)cc2cnn(Cc3ccc4ccccc4c3)c12)c1ccc(C(=O)O)cc1 . Reported pIC50?
Ans: > 7.00

Q: Returns the measured pIC50 for the input compound. Input: N#Cc1ccc(-c2cc(C(=O)NCc3ccc(C(=O)O)cc3)c3c(ccn3Cc3ccc(C(F)(F)F)cc3)c2)cc1
Ans: > 7.00

Q: # query: pIC50 of entry O=C(O)c1ccc(C2(NC(=O)c3cc(-c4cc(F)cc(F)c4)cc4ccn(Cc5ccc(C(F)(F)F)cc5)c34)CC2)cc1
Ans: ≤ 6.00

Q: What value of measured pIC50 is listed for O=C(O)c1ccc(CNC(=O)c2cc(-c3ccccc3)cc3ccn(Cc4ccc(-c5ccccc5)cc4)c23)cc1 ?
Ans: > 7.00

Q: Can you share its pIC50? I mean this compound: C[C@@H](NC(=O)c1ccc(-c2cc(F)cc(F)c2)c2ccn(Cc3ccc(C(F)(F)F)cc3)c12)c1ccc(C(=O)O)cc1
Ans: ≤ 6.00

Q: What value of measured pIC50 is listed for O=C(O)c1ccc(CNC(=O)c2cc(-c3cc(F)cc(F)c3)cc3nnn(Cc4ccc(C(F)(F)F)cc4)c23)cc1 ?
Ans: > 7.00

Q: State the recorded pIC50 for this entry: COc1cccc(Cn2ccc3cc(-c4ccccc4)cc(C(=O)NCc4ccc(C(=O)O)cc4)c32)c1
Ans: > 7.00

Q: I have this compound here, C[C@H](NC(=O)c1cc(-c2ccccc2)cc2cnn(Cc3cccc(C(F)(F)F)c3)c12)[C@H]1CC[C@H](C(=O)O)CC1 , and I need its recorded pIC50.
Ans: ≤ 6.00

Q: Given CN(c1ccccc1)c1ccc(C(=O)NC2(c3ccc(C(=O)O)cc3)CC2)c2c1ccn2Cc1ccc(C(F)(F)F)cc1 , state its recorded pIC50.
Ans: ≤ 6.00

Q: For C[C@H](NC(=O)c1cc(-c2ccc(F)cc2)cc2cnn(Cc3ccc4ccccc4c3)c12)c1ccc(C(=O)O)cc1 , what is its reported pIC50?
Ans: > 7.00

###

- Measured Target: human EP2 (PTGER2) (Homo sapiens)
- Construct: Cayman Chemical (Human EP2 Reporter Assay Kit)
- Assay Summary: EP2 antagonist assay (HEK-293 CNG membrane potential cAMP assay / 293T SEAP reporter assay, PGE2-stimulated)
- Type: cell-based
- Measurement Setup: EP2 antagonist activity; concentration for 50% inhibition of signal compared to DMSO
pIC50: −log10 of the molar value.
Provide the reported pIC50 of each item.

Q: Field request: pIC50 | item: N#Cc1cccc(-c2cc(C(=O)NCc3ccc(C(=O)O)cc3)c3c(ccn3Cc3cccc(C(F)(F)F)c3)c2)c1
Ans: > 7.00

Q: What does the data say about its pIC50? Entry: CC(c1ccc(C(F)(F)F)cc1)n1ccc2cc(-c3ccccc3)cc(C(=O)NCc3ccc(C(=O)O)cc3)c21 (racemic)
Ans: > 7.00

Q: Which pIC50 value belongs to O=C(O)c1ccc(CNC(=O)c2cc(-c3ccc(F)cc3)cc3cnn(Cc4ccc(C(F)(F)F)cc4)c23)cc1 ?
Ans: > 7.00

Q: Can you share its pIC50? I mean this molecule: O=C(O)c1ccc(CNC(=O)c2cc(-c3ccc(F)c(F)c3)cc3ccn(Cc4ccc(-c5ccc(F)cc5)cc4)c23)cc1
Ans: > 7.00

Q: I have this molecule here, O=C(O)c1ccc(CNC(=O)c2cc(-c3ccc(F)cc3)cc3ccn(Cc4ccc5ccccc5c4)c23)cc1 , and I need its recorded pIC50.
Ans: > 7.00

Q: Requested read-out: pIC50. Entry: O=C(O)c1ccc(CNC(=O)c2cc(-c3ccc(F)c(Cl)c3)cc3ccn(Cc4ccc(C(F)(F)F)cc4)c23)cc1
Ans: > 7.00

Q: Looking for the measured pIC50 of C[C@@H](NC(=O)c1ccc(-c2ccccc2)c2ccn(Cc3ccc(C(F)(F)F)cc3)c12)c1ccc(C(=O)O)cc1 , can you help?
Ans: ≤ 6.00

Q: Can you share its pIC50? I mean this molecule: O=C(O)c1ccc(CNC(=O)c2ccc(Nc3ccccc3)c3ccn(Cc4ccc(-c5ccccc5)cc4)c23)cc1
Ans: > 7.00

Q: So what does the record say about pIC50 for O=C(O)c1ccc(CNC(=O)c2cc(-c3ccccc3)cc3ncn(Cc4ccc(C(F)(F)F)cc4)c23)cc1 ?
Ans: > 7.00

Q: // pIC50 lookup, key: O=C(O)c1ccc(CNC(=O)c2ccc(Nc3ccc(F)cc3)c3cnn(Cc4ccc5ccccc5c4)c23)cc1
Ans: ≤ 6.00

Q: Given the molecule N#Cc1cccc(Nc2ccc(C(=O)NCc3ccc(C(=O)O)cc3)c3c2ccn3Cc2ccc(C(F)(F)F)cc2)c1 , what is its reported pIC50?
Ans: > 7.00

Q: Endpoint output: pIC50 of O=C(O)c1ccc(CNC(=O)c2cc(-c3ccccc3C(F)(F)F)cc3ccn(Cc4ccc(C(F)(F)F)cc4)c23)cc1 . Value?
Ans: 6.00 to 7.00

Q: // pIC50 lookup, key: O=C(O)c1ccc(C2(NC(=O)c3cc(-c4ccccc4)cc4ccn(Cc5cccc(C(F)(F)F)c5)c34)CC2)cc1
Ans: 6.00 to 7.00

Q: Recorded pIC50 for O=C(O)c1ccc(CNC(=O)c2cc(-c3ccccc3)cc3cnn(Cc4cccc(C(F)(F)F)c4)c23)cc1 , please?
Ans: > 7.00

All values here come from patent US20250179017A1.
